- Tested on: Max* in heterodimer;ΔMax* in heterodimer V99G;R100E;A101S;L102E;E103S (;), P61244+P61244-3
- Sequence (P61244 whole entry V99G/R100E/A101S/L102E/E103S, looked up, one chain of several): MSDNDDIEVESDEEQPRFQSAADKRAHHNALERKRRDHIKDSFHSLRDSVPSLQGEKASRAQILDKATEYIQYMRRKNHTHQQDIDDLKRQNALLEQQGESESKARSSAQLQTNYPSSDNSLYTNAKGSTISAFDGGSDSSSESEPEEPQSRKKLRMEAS
- PROCEDURE TEXT: fluorescence anisotropy
- RECORDED CONDITIONS: 37 C; 1:1 mixture; apparent 1/KBinding; 1/KDimer 120 ± 10 nM; internal fluorescein-dT (iFluorT) at position 4; FA: 15 nM dsDNA, 50 mM Tris, 50 mM KCl, pH 7.5, 37 C; EMSA: 250 nM DNA, 20 mM Tris-HCl, 75 mM KCl, 2.5 mM TCEP, 25 ug/mL BSA, 5% glycerol, pH 8.0, room temp …
MEASUREMENT KIND: Kd (nM)
Numeric answer only, unit nM assumed.

Exercise: Fill blank: measured Kd of the sequence GAGTAGCACGTGCTACTC (double strand) [E-box, fluorescein-labeled] is ____.
Solution: 4

* * *

- Test system: ΔMax* in heterodimer;c-Myc* in heterodimer V99G;R100E;A101S;L102E;E103S (;), P61244-3+P01106
- Sequence (P01106 whole entry, looked up, chain 1 of 2): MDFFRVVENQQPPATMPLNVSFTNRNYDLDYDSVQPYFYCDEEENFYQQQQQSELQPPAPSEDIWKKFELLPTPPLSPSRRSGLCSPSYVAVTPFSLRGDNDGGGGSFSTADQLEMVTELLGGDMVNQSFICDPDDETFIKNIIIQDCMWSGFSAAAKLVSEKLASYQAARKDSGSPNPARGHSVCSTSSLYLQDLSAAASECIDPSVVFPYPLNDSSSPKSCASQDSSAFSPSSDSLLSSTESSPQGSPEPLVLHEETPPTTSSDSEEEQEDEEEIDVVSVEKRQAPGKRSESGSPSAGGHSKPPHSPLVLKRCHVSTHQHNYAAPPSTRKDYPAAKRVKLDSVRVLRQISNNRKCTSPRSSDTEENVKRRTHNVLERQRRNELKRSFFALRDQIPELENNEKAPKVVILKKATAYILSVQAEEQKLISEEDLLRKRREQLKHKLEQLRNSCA
- Sequence (P61244 whole entry, looked up, stated change not applied, chain 2 of 2): as the sequence (P61244 whole entry V99G/R100E/A101S/L102E/E103S, looked up, one chain of several) above, with G99V, E100R, S101A, E102L, S103E counted along it
- PROCEDURE TEXT: fluorescence anisotropy
- RECORDED CONDITIONS: 37 C; 1:1 mixture; apparent 1/KBinding; 1/KDimer 38 ± 5 nM; internal fluorescein-dT (iFluorT) at position 4; FA: 15 nM dsDNA, 50 mM Tris, 50 mM KCl, pH 7.5, 37 C; EMSA: 250 nM DNA, 20 mM Tris-HCl, 75 mM KCl, 2.5 mM TCEP, 25 ug/mL BSA, 5% glycerol, pH 8.0, room temp …
MEASUREMENT KIND: pKd
# reply with the number alone; pKd is -log10 of concentration in mol/L

Exercise: Fill blank: measured pKd of the sequence GAGTAGGGATCCCTACTC (double strand) [Non-specific DNA, fluorescein-labeled] is ____.
Solution: 7.96

* * *

- Test system: ΔMax* (b-HLH-LZ of ΔMax splice isoform) V99G;R100E;A101S;L102E;E103S, P61244-3
- Sequence (P61244 whole entry V99G/R100E/A101S/L102E/E103S, looked up, canonical isoform): as the sequence (P61244 whole entry V99G/R100E/A101S/L102E/E103S, looked up, one chain of several) above
- PROCEDURE TEXT: fluorescence anisotropy
- RECORDED CONDITIONS: 37 C; apparent 1/KBinding of dimer; 1/KDimer 220 ± 20 nM; internal fluorescein-dT (iFluorT) at position 4; FA: 15 nM dsDNA, 50 mM Tris, 50 mM KCl, pH 7.5, 37 C; EMSA: 250 nM DNA, 20 mM Tris-HCl, 75 mM KCl, 2.5 mM TCEP, 25 ug/mL BSA, 5% glycerol, pH 8.0, room temp …
MEASUREMENT KIND: pKd
# reply with the number alone; pKd is -log10 of concentration in mol/L

Exercise: Fill blank: measured pKd of the sequence GAGTAGCACGTGCTACTC (double strand) [E-box, fluorescein-labeled] is ____.
Solution: 7.10

* * *

- System: ΔMax* in heterodimer;c-Myc* in heterodimer V99G;R100E;A101S;L102E;E103S (;), P61244-3+P01106
- PROCEDURE TEXT: fluorescence anisotropy
- RECORDED CONDITIONS: 37 C; 1:1 mixture; apparent 1/KBinding; 1/KDimer 17 ± 2 nM; internal fluorescein-dT (iFluorT) at position 4; FA: 15 nM dsDNA, 50 mM Tris, 50 mM KCl, pH 7.5, 37 C; EMSA: 250 nM DNA, 20 mM Tris-HCl, 75 mM KCl, 2.5 mM TCEP, 25 ug/mL BSA, 5% glycerol, pH 8.0, room temp …
MEASUREMENT KIND: pKd
# reply with the number alone; pKd is -log10 of concentration in mol/L

Exercise: Fill blank: measured pKd of the sequence GAGTAGCACGTGCTACTC (double strand) [E-box, fluorescein-labeled] is ____.
Solution: 8.00
